Target: recombinant eIF4E (Homo sapiens (Human), UniProt P06730)
Sequence (P06730 whole entry): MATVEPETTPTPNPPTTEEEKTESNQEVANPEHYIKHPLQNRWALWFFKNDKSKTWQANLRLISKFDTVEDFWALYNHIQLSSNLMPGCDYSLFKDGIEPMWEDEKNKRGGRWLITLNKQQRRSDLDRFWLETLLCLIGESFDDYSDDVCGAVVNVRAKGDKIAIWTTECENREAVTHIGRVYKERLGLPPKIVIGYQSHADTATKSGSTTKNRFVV
Experiment: Fluorescence polarization competition assay for eIF4E binding potency
Settings: inhibition of eIF4E/EDA-m7GDP-ATTO-550 binding; calculated IC50 values, Table 4B; read-out: IC50
pIC50: −log10 of the molar value.
READOUT: pIC50

compound="Cc1nc2cnc(N3CCN(CCC(F)(F)F)CC3)c(C#N)c2c(=O)n1CCOc1ccc(Cl)cc1-c1ccnc2c(C(=O)O)csc12 [compound 1308]" readout=pIC50 quantitative_result=7.38

[A] Cc1nc2cnc(N3CC[C@H]4CN(CC(F)F)CC[C@H]43)c(C#N)c2c(=O)n1CC#Cc1ccc(Cl)cc1-c1ccnc2c(C(=O)O)csc12 [compound 1556]
[B] Cc1nc2cnc(N3CCN(CCCF)CC3)c(C#N)c2c(=O)n1CC#Cc1ccc(Cl)cc1-c1ccnc2c(C(=O)O)csc12 [compound 1457]
Parameter check: reported pIC50 is higher for which label, A or B ? // caller expects the label of the chosen entry
B
(B: 7.74, A: 7.30)

Just for reference, patent US11286268B1 is where these values come from.
